Measurement Notes: reduced GFP signal of wild-type E. coli, primary screen, bacterial rRNA inhibitor project, GFP/RFP fluorescence, OD600, single point (AID 720706)
Condition Details: E. coli WT GFP vs humanized-ribosome RFP mutants, 24 h, concentration not given here unless noted
About 5,500 (1.6%) of roughly 350,000 compounds were called active.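 Rule for the calls: active = significant combined selectivity score with lowered wild-type GFP, culture density cut under 30%, mutant RFP and density less affected; inactive = any of these conditions unmet.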 The entries come from a sample that favours actives as a whole.
Choose the fitting class; nothing outside 1.0 = active, 0.0 = inactive is accepted.

1) O=C(Cc1ccccc1)N1CCCCN2[C@H](C1)[C@H](c1ccc(C#CC3(O)CCCC3)cc1)[C@@H]2CO: 0.0

Inquiry: So what was the verdict on O=S(=O)(c1ccccc1)N1CCC2CCNC2C1 (stereo not given) in this test?
Reply text: 0.0

Inquiry: Hi, do you know how `Brc1ccc2c(c1)CNCc1cnnn1-2` came out in this test?
Reply text: 0.0

###

In this section, each of the molecules is paired with its reported OD600 change.
Measurement Notes: reduced GFP signal of wild-type E. coli, primary screen, bacterial rRNA inhibitor project, GFP/RFP fluorescence, OD600, single point (AID 720706)
Condition Details: E. coli WT GFP vs humanized-ribosome RFP mutants, 24 h; measured here: OD600 growth unless noted
Hit rate of the full screen: of about 350,000 compounds, about 5,500 (1.6%) were called active. This is one part of a sample in which actives are shown more often than they occur.
Number in %, nothing else.

1) O=[N+]([O-])c1cnc2ccc3ccccc3c2c1: -75.7
2) COC(=O)[C@@H]1[C@@H](CO)[C@@H]2Cn3c(ccc(-c4cccc(C(=O)N(C)C)c4)c3=O)[C@H]1N2C(=O)NC(C)C: 8.61
3) COc1cccc(-c2ccc3n(c2=O)C[C@@H]2[C@@H](CO)[C@H](C(=O)O)[C@H]3N2C(=O)c2cnccn2)c1: 2.71
4) O=C(O)[C@H]1[C@H](CO)[C@H]2Cn3c(cccc3=O)[C@@H]1N2C(=O)c1ccccc1: 7.83

Inquiry: Given `CCN(CC)c1ccc([N+](=O)[O-])c2cccnc12` , state its recorded OD600 change.
Reply text: -57.8

Inquiry: Which OD600 change reading was recorded for the molecule `C/C(=N/O)c1ccc2ccc3ccccc3c2c1` ?
Reply text: -16.4

Inquiry: So what's the measured OD600 change for this one? `COC(=O)[C@@H]1[C@@H](CO)[C@@H]2Cn3c(ccc(-c4ccc(F)cc4)c3=O)[C@H]1N2C(C)=O`
Reply text: -1.06

Inquiry: Which value of OD600 change has been reported for `CCOc1ccc(-c2cc(C)[n+](CCN(CC)CC)c(-c3ccc(OCC)cc3)c2)cc1` in the records?
Reply text: -15.2

Inquiry: Need OD600 change, item C[C@]12CCC3C(CC[C@H]4C[C@@H](O)CC[C@]34C)C1C[C@@H](O)[C@H]2O (stereo not given in full)
Reply text: 2.49

Inquiry: // OD600 change lookup, key: `O=C(Cc1ccncc1)N1CCCCN2[C@H](CO)[C@@H](c3ccc(C#CC4(O)CCCC4)cc3)[C@H]2C1`
Reply text: 9.16

Inquiry: Tell me the measured OD600 change of `O=C1CC(=O)N(Cc2ccccc2)C(=O)N1CCCCCCN1C(=O)CC(=O)N(Cc2ccccc2)C1=O` , please.
Reply text: 8

Inquiry: Would you mind telling me what OD600 change value was observed for CCC(C)NC1(c2ccccc2)CCCCC1 (stereo not given) ?
Reply text: 7.39
